method summary: Antiplatelet activity against 10^-5 M ADP-induced human platelet aggregation at 100 uM by light transmission aggregometry
Assay type: functional
Recorded Activity for the following compounds
Give just the numeric value; % need not be written.

A selection of reference data follows.
{"structure smiles": "Cc1ccc(S(=O)(=O)NCCSc2nc(N)cc(=O)[nH]2)cc1", "recorded endpoint": "Activity", "val": 89}
{"structure smiles": "Cn1c(SCc2ccccc2Cl)nc(N)cc1=O", "recorded endpoint": "Activity", "val": 88}
{"structure smiles": "CSc1nc(N)cc(OS(=O)(=O)c2ccc(C)cc2)n1", "recorded endpoint": "Activity", "val": 96}
{"structure smiles": "CC(C)(C)OC(=O)NCCSc1nc(N)cc(=O)[nH]1", "recorded endpoint": "Activity", "val": 76}
{"structure smiles": "O=C(Nc1ccccc1)Nc1cc(=O)[nH]c(SCc2ccccc2Cl)n1", "recorded endpoint": "Activity", "val": 94}

// sample Cc1ccc(S(=O)(=O)Oc2cc(N)nc(SCc3ccccc3Cl)n2)cc1 , its Activity was 100

// sample Cc1ccc(S(=O)(=O)Nc2cc(N)nc(SCCN)n2)cc1 , its Activity was 91

// sample O=c1cc(O)nc(SCc2ccccc2Cl)[nH]1 , its Activity was 96

// sample Cc1ccc(S(=O)(=O)Oc2cc(N)nc(SCCNC(=O)OC(C)(C)C)n2)cc1 , its Activity was 97

// sample CCCCCSc1nc(N)cc(OS(=O)(=O)c2ccccc2Cl)n1 , its Activity was 95

// sample Nc1cc(OS(=O)(=O)c2ccccc2Cl)nc(SCC(F)(F)F)n1 , its Activity was 102
